Cited source: patent US9017689B2

- METHOD_NOTES: Solubility screening in trehalose matrices pH 2.65 to 7.03
- Format: physicochemical
- TEST_PARAMETERS: aqueous buffer; 10 mM sodium citrate and 260 mM trehalose dihydrate, pH 6.01; read-out: Solubility [mg per ml]
Ends that are not written are not given here.
VALUE_KIND: solubility

- SNEIKIVATPEGGSILK [Bir07C]: ≥ 306 µg/mL
- AERERIFKRFDANGEGK [Bir16A]: ≥ 22400 µg/mL
- FNYETETTSVIPAARK [BIR1I]: ≥ 6430 µg/mL
- AKYMVIQGEPGRVIRGK [Bir12B]: ≥ 1910 µg/mL
- KEMGETLLRAVESYLLAHS [BIR09R]: ≥ 4280 µg/mL

Challenge: Give its solubility value. Item: PGTIKKISFPEGFPFKYV [Bir04]
Response given: ≥ 8760 µg/mL

Challenge: Give its solubility value. Item: ETLLRAVESYLLAHSDAY [Bir09]
Response given: ≥ 875 µg/mL

Challenge: Give its solubility value. Item: PAARMFKAFILEGDKLVPK [Bir02J]
Response given: ≥ 320 µg/mL

* * *

Listed next: entries and their corresponding Solubility [μmol per ml].
- METHOD_NOTES: Solubility screening in trehalose matrices pH 2.65 to 7.03;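 further: test items are peptides, each checked for solubility in every trehalose matrix, the matrices made up in distilled deionised water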
- Type: physicochemical
- TEST_PARAMETERS: 10 mM potassium dihydrogen phosphate and 260 mM trehalose dihydrate, pH 7.03
Ends that are not written are not given here.
# value in μmol per ml; strip the unit string

Challenge: Give its Solubility [μmol per ml] value. Item: PGTIKKISFPEGFPFKYV [Bir04]
Response given: 9.061

Challenge: Give its Solubility [μmol per ml] value. Item: AKYMVIQGEPGRVIRGK [Bir12B]
Response given: 9.060

Challenge: Give its Solubility [μmol per ml] value. Item: KEMGETLLRAVESYLLAHS [Bir09B]
Response given: 8.790
